# protocolDescription: Serum concentrations in mice after sub-cutaneous injection, microbiological assay
# Format: in vivo
# appliedConditions: mouse, sc, 50 mg/kg sub-cutaneous, 10 min, average, read-out: Serum concentrations at time after dosing
# Experimental: Each compound was injected sub-cutaneously into groups of mice at a dose of 50 mg/kg, and serum samples were taken at timed intervals thereafter and assayed microbiologically for their antibiotic content using the appropriate compound as standard.
testReadout: concentration at 10 min

concentration at 10 min lookup needed for N[C@@H](C(=O)N[C@@H]1C(=O)N2C(C(=O)O)=C(Cc3cccc(C(=O)O)c3)CS[C@H]12)c1ccccc1 [m-carboxy isomer] , thanks.
84 µg/mL

* * *

Items are presented alongside their recorded concentration at 0.5 h.
# protocolDescription: Serum concentrations in mice after sub-cutaneous injection, microbiological assay
# Assay type: in vivo
# appliedConditions: mouse, sc, 50 mg/kg sub-cutaneous, 30 min, average, read-out: Serum concentrations at time after dosing
Give a bare numeral; the unit µg/mL is implied.

Worked cases, concentration at 0.5 h given:
N[C@@H](C(=O)N[C@@H]1C(=O)N2C(C(=O)O)=C(Cc3ccccc3C(=O)O)CS[C@H]12)c1ccccc1 [o-carboxy isomer]    58
Cc1nnc(SCC2=C(C(=O)O)N3C(=O)[C@@H](NC(=O)Cn4cnnn4)[C@H]3SC2)s1 [Cefazolin, reference compound]    21
N[C@@H](C(=O)N[C@@H]1C(=O)N2C(C(=O)O)=C(Cc3cccc(C(=O)O)c3)CS[C@H]12)c1ccccc1 [m-carboxy isomer]    50

Give its concentration at 0.5 h value. Item: N[C@@H](C(=O)N[C@@H]1C(=O)N2C(C(=O)O)=C(Cc3ccc(C(=O)O)cc3)CS[C@H]12)c1ccccc1 [p-carboxy isomer]
69
